Each entry below lists one item and its recorded Relative cAMP EC50 value.
Experimental System: hGLP-1R (Homo sapiens, UniProt P43220)
Sequence (P43220 24-463): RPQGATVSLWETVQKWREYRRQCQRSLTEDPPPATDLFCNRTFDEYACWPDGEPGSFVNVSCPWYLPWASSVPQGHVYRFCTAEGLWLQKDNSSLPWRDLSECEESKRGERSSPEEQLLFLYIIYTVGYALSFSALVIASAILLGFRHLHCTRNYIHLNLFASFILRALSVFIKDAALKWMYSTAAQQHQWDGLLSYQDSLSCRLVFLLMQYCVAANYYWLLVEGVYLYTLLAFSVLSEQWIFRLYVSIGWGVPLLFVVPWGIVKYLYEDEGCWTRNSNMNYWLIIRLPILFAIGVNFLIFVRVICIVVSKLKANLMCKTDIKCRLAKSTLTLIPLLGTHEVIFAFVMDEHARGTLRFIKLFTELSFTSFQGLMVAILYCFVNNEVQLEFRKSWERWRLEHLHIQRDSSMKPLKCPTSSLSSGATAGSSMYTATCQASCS
Method: cell-based or functional assay
Give the quantity in nM, number only.

Ask: Relative cAMP EC50 lookup needed for YXQGTFTSDFSXXLDKKAQXAFIEYLLAGGPSSGAPPPSGEX (synthetic construct; SITE 2: note = 2-Aminoisobutyric Acid; SITE 12: note = L-ornithine; SITE 13: note = alpha-methyl-leucine; SITE 17: note = Lysine is chemically modified through conjugation of the epsilon-amino group of the Lysine side chain with (2-[2-(2-Amino-ethoxy)-ethoxy]-acetyl)-(gamma-Glu)) [Example 91] , thanks.
Reply: 3.39

Ask: Now consider YXQGTXTSDXXILLDXKAQXXFIEYLIEGGPSSGEPPPEGSEE (non-natural residues, acylated Lys ((γGlu)2-C18 diacid), C-terminal amide; synthetic construct; SITE 2: note = 2-Aminoisobutyric Acid; SITE 6: note = alpha-methyl-2-fluoro-L-phenylalanine; SITE 10: note = 3-(4-Pyridyl)-L-alanine; SITE 11: note = alpha-methyl-L-serine; SITE 16: note = L-ornithine; SITE 17: note = Lysine is chemically modified through conjugation of the epsi) [Example 603] and answer again.
Reply: 0.688

New cases:
Ask: Relative cAMP EC50 lookup needed for YXQGTXTSDXXIXLDXKAAXEFIEXLIEGGPSSGAPPPSGSE (synthetic construct; SITE 2: note = 2-Aminoisobutyric Acid; SITE 6: note = alpha-methyl-2-fluoro-L-phenylalanine; SITE 10: note = 3-(4-Pyridyl)-L-alanine; SITE 11: note = alpha-methyl-L-serine; SITE 13: note = alpha-methyl-leucine; SITE 16: note = L-ornithine; SITE 17: note = Lysine is chemically mo) [Example 702] , thanks.
Reply: 0.243
